# system under test: Transitional endoplasmic reticulum ATPase (Homo sapiens) (UniProt P55072)
# Sequence (P55072 whole entry, looked up): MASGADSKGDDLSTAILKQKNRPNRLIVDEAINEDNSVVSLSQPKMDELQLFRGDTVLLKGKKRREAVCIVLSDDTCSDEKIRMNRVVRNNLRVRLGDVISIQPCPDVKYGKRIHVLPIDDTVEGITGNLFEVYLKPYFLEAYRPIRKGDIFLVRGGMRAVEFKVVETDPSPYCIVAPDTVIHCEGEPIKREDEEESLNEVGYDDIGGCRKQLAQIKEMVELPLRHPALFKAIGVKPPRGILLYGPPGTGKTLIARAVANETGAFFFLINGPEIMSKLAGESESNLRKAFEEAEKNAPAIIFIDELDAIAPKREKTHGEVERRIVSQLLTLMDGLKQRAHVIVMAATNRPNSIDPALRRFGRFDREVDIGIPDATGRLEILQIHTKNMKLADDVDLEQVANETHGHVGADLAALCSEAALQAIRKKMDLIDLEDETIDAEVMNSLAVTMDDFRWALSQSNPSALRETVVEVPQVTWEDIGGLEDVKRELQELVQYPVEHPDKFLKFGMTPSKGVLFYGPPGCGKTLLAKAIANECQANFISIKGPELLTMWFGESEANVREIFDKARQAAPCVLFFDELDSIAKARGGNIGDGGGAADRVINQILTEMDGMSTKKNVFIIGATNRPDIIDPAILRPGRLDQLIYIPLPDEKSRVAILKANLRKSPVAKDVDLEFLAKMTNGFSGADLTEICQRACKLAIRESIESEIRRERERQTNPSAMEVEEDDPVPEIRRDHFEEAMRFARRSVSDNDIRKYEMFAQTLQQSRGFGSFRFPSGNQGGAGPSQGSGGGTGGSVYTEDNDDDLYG
# experimental protocol: p97 ATP hydrolysis blockers – biochemical, primary screen (AID 1481);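 further: 0% = DMSO vehicle and 100% = wells lacking enzyme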
# study conditions: recombinant p97 ATPase, Kinase-Glo ATP luminescence, 3 h; at 8 µM; active compounds read high
About 920 (0.42%) of roughly 220,000 compounds were called active. Many of the other results were omitted from the sample, so actives are more common in it than they were.
attribute measured: inhibition (%)
Respond numerically; units are % and should not be typed.

{"columns": ["compound", "attribute measured", "unit tag", "reported measurement"],
 "data": [
  ["Cc1nc(-c2ccccc2)sc1-c1nnc(C2CC2)o1", "inhibition", "%", -11.7],
  ["Cc1[nH][nH]c(=O)c1C(c1ccc(-c2ccc(Cl)cc2)o1)c1c(C)[nH][nH]c1=O", "inhibition", "%", 18.4],
  ["Cc1[nH][nH]c(=O)c1C(c1ccc2c(c1)OCO2)c1c(C)[nH][nH]c1=O", "inhibition", "%", -1.45]
]}

Recall the reported inhibition of C/C(=N/NC(=S)Nc1ccccc1)c1ccc2c(c1)OCO2 on Transitional endoplasmic reticulum ATPase (Homo sapiens) (UniProt P55072) and write it down.
2.26

Using Transitional endoplasmic reticulum ATPase (Homo sapiens) (UniProt P55072) as the test system, report measured inhibition of Cc1ccc2c(c1)NCC(C(=O)NC1CCC(C)CC1)O2 (stereo not given) .
18.4

Retrieve inhibition on Transitional endoplasmic reticulum ATPase (Homo sapiens) (UniProt P55072); query CN(C)[C@@H]1C(=O)C(C(N)=O)=C(O)[C@@]2(O)C(=O)C3=C(O)c4c(O)ccc(Cl)c4[C@@H](O)[C@H]3C[C@@H]12
23.4

Give inhibition; test system Transitional endoplasmic reticulum ATPase (Homo sapiens) (UniProt P55072); compound CCOc1ccc(C(c2c(C)[nH][nH]c2=O)c2c(C)[nH][nH]c2=O)cc1OCC
-3.3

Jot down inhibition (Transitional endoplasmic reticulum ATPase (Homo sapiens) (UniProt P55072)) of O=C(/C=C/c1ccc2c(c1)OCCO2)c1ccc(O)cc1 .
9.09

Check Transitional endoplasmic reticulum ATPase (Homo sapiens) (UniProt P55072) data and give inhibition for COc1ccc([N+](=O)[O-])cc1N(CC(O)CN(CC(C)C)CC(C)C)S(=O)(=O)c1ccc(C)cc1 (stereo not given) .
-15

Report measured inhibition on Transitional endoplasmic reticulum ATPase (Homo sapiens) (UniProt P55072); entry: Cc1cc(C)cc(NC(=O)N(C)Cc2ccccc2)c1
-0.6

* * *

// inhibition lookup, one value per entry
# system under test: Transitional endoplasmic reticulum ATPase (Homo sapiens) (UniProt P55072)
# experimental protocol: p97 ATP hydrolysis blockers – biochemical, primary screen (AID 1481);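 further: 0% = DMSO vehicle and 100% = wells lacking enzyme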
# study conditions: recombinant p97 ATPase, Kinase-Glo ATP luminescence, 3 h; at 8 µM; active compounds read high
Hit rate of the full screen: of about 220,000 compounds, about 920 (0.42%) were called active. The list comes from a sample in which actives are over-represented; it also holds close analogues and randomly drawn compounds.

Worked cases, answers included:
{"columns": ["compound", "reported measurement"],
 "data": [
  ["O=C(CCl)N(Cc1cccc([N+](=O)[O-])c1)c1cccc(Cl)c1", "-3.6% (inactive)"],
  ["CC(=O)NC1C(OCc2ccccc2)OC(COC(C)=O)C(OC(C)=O)C1OC(C)=O (stereo unspecified)", "1.05% (inactive)"],
  ["Nc1nc(SCC(=O)NN(c2ccccc2)c2ccccc2)n[nH]1", "-5.25% (inactive)"],
  ["CCN(c1ccccc1)S(=O)(=O)c1ccc(N)cc1", "21.5% (active)"],
  ["CCOc1c(Br)cc(/C=C2\\C(=O)N(CCC#N)N=C2C)cc1OC", "26.9% (active)"]
]}

Note down inhibition recorded for O=C(NC(=O)N1CCOCC1)c1ccccc1
5.31% (inactive)

Give the measured inhibition for O=C(OCC1O[C@@H](OC(=O)c2cc(O)c(O)c(O)c2)[C@@H](OC(=O)c2cc(O)c(O)c(O)c2)[C@@H](OC(=O)c2cc(O)c(O)c(O)c2)[C@@H]1OC(=O)c1cc(O)c(O)c(O)c1)c1cc(O)c(O)c(O)c1 (stereo partly specified)
67% (active)

* * *

# system under test: Transitional endoplasmic reticulum ATPase (Homo sapiens) (UniProt P55072)
# experimental protocol: p97 ATP hydrolysis blockers – biochemical, primary screen (AID 1481);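 further: 0% = DMSO vehicle and 100% = wells lacking enzyme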
# study conditions: recombinant p97 ATPase, Kinase-Glo ATP luminescence, 3 h; at 8 µM
Among all 220,000 compounds or so, about 920 (0.42%) were called active. Cut-off read from the data, not from the text of the source: active = inhibition above about 15%; inactive = the rest. The entries come from a sample that favours actives as a whole.
Permitted responses: active, inactive

// below: answered compounds
{"columns": ["compound", "class label"],
 "data": [
  ["CN(C)c1ccc(/C=C/C(=O)c2ccc(C(C)(C)C)cc2)cc1[N+](=O)[O-]", "inactive"],
  ["O=C(N/N=C/c1sc(N2CCCCC2)nc1-c1cccs1)c1cccnc1", "inactive"],
  ["COc1ccccc1-n1c(-c2cc(-c3ccco3)[nH]n2)n[nH]c1=S", "inactive"],
  ["CCN1CCc2nc(NC(=O)c3cc(F)c(F)cc3Cl)sc2C1", "inactive"],
  ["COc1ccccc1CNC(=O)COc1ccc(C)nc1[N+](=O)[O-]", "inactive"]
]}

Please indicate how the test categorized O=C(Nc1ccc2c(c1)OCCO2)C(c1ccc(F)cc1)N1CCCCC1 (stereo not drawn) .
inactive

Any idea what this test logged for CC1CCN(c2ccc([N+](=O)[O-])c(SCCO)c2)CC1 ?
inactive

What did the test return for COc1cc(C(=O)Nn2c(O)c(C3=c4ccccc4=NC3=O)sc2=S)ccc1O ?
inactive

Could you please tell me the result logged for COC(=O)c1scc(S(=O)(=O)C(C)(C)C)c1-n1cccc1 in this assay?
inactive

What classification did Cc1cc(Nc2ccc(N3CCOCC3)cc2)c2cccc(C)c2n1 end up with in this test?
inactive

Name the outcome recorded for Cc1ccc(Cn2c(SCC(=O)N/N=C/c3ccccc3OCC(=O)O)nc3ccccc32)cc1 in the assay.
inactive

Dear colleague, could you share the recorded outcome for Cc1cccc2cc(CN(Cc3nnnn3Cc3ccccc3)C3CCCC3)c(=O)[nH]c12 when you have a moment?
inactive

For this compound, state the assay outcome: CC(C(=O)O)n1cnc2sc3c(c2c1=O)CCCC3 (stereo not drawn)
active

* * *

# system under test: Transitional endoplasmic reticulum ATPase (Homo sapiens) (UniProt P55072)
# experimental protocol: p97 ATP hydrolysis blockers – biochemical, primary screen (AID 1481);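 further: 0% = DMSO vehicle and 100% = wells lacking enzyme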
# study conditions: recombinant p97 ATPase, Kinase-Glo ATP luminescence, 3 h; at 8 µM; active compounds read high
About 920 (0.42%) of roughly 220,000 compounds were called active. The sample holds actives, similar compounds and a random draw of the others, so the mix is not that of the screen.
attribute measured: inhibition (%)
Give the value in % but do not write % after it.

Please review the entries below; each comes with its answer.
{"columns": ["compound", "attribute measured", "reported measurement"],
 "data": [
  ["COc1ccc(CCNS(=O)(=O)c2ccc(Cl)s2)cc1OC", "inhibition", -7.85],
  ["CC(=O)Nc1nc2c(s1)C(=O)NCC(C)(C)C2", "inhibition", 0.86],
  ["CC(=O)c1cc(C#N)c(N2CCCCC2)nc1C", "inhibition", -1.2],
  ["O=C(c1cccc(S(=O)(=O)N2CCOCC2)c1)N1CCOCC1", "inhibition", 0.28]
]}

Quickly give me recorded inhibition for CCC1(CC)NC(=O)N(CC(=O)OCC(=O)NC(=O)c2ccccc2)C1=O
-0.8

State, in one line, measured inhibition of Cc1cc(C)c(C#N)c(N2CCC(C(N)=O)CC2)n1
3.21

Please give the documented inhibition of OCCNc1nc2ccccc2n1-c1ncnc2sc3c(c12)CCC3
-5.39

Look up inhibition of CN1C(=O)/C(=C\c2cc(Br)cs2)c2ccccc21 and report it.
7.61

Query inhibition for Fc1ccccc1/C=C1\CCCC2=C1Nc1ncnn1C2c1ccccc1F (stereo unspecified)
3.82

Dear colleague, please send me the reported inhibition for Cc1cc(C(=O)NNC(=O)c2cccc(S(=O)(=O)N3CCOCC3)c2)c2ccccc2n1 when you can.
-3.18

State, in one line, measured inhibition of COc1ccccc1-n1c(SCC(=O)O)nc2sc3c(c2c1=O)CCC3
-1.29

* * *

# system under test: Transitional endoplasmic reticulum ATPase (Homo sapiens) (UniProt P55072)
# experimental protocol: p97 ATP hydrolysis blockers – biochemical, primary screen (AID 1481);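 further: 0% = DMSO vehicle and 100% = wells lacking enzyme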
# study conditions: recombinant p97 ATPase, Kinase-Glo ATP luminescence, 3 h; at 8 µM; active compounds read high
The campaign covered roughly 220,000 compounds. About 920 (0.42%) were called active. Shown is part of a subset that was picked to be rich in actives.
Below, each entry is listed alongside its reported inhibition.
Quick note: give the figure in %, leave out the unit.

{"columns": ["compound", "reported measurement"],
 "data": [
  ["Cc1cc(C)c2c(n1)nn1c(N3CCN(c4cccc(Cl)c4)CC3)cc(C)nc21", -0.34],
  ["Cc1cc(C)c2c(n1)nn1c(N3CCOCC3)cc(C)nc21", 5.86],
  ["CCCc1nc2c(c(=O)c3ccccc3n2C)c(=O)n1-c1cc(C)cc(C)c1", 1.03],
  ["NC(=O)c1ccc(NC(=O)COC(=O)c2c3c(nc4ccccc24)/C(=C\\c2ccc4c(c2)OCO4)CCC3)cc1", 21.3],
  ["Oc1c(C=Nc2cccc3nsnc23)ccc2ccccc12", 40.4]
]}

Give the reported inhibition for this compound. O=C(COC(=O)c1c2c(nc3ccccc13)/C(=C\c1cccs1)CCC2)Nc1ccccc1Cl
-4.57

Answer with reported inhibition of CC(C)Sc1nnc([C@H](Cc2ccccc2)NC(=O)OC(C)(C)C)o1
-6.35
